System tested: Human recombinant PDE2A (hPDE2A) (Homo sapiens, UniProt O00408)
Construct: His tag (inferred from metal chelate purification); made in house; host or cells: Sf9 insect cells (baculovirus)
Sequence (O00408 whole entry): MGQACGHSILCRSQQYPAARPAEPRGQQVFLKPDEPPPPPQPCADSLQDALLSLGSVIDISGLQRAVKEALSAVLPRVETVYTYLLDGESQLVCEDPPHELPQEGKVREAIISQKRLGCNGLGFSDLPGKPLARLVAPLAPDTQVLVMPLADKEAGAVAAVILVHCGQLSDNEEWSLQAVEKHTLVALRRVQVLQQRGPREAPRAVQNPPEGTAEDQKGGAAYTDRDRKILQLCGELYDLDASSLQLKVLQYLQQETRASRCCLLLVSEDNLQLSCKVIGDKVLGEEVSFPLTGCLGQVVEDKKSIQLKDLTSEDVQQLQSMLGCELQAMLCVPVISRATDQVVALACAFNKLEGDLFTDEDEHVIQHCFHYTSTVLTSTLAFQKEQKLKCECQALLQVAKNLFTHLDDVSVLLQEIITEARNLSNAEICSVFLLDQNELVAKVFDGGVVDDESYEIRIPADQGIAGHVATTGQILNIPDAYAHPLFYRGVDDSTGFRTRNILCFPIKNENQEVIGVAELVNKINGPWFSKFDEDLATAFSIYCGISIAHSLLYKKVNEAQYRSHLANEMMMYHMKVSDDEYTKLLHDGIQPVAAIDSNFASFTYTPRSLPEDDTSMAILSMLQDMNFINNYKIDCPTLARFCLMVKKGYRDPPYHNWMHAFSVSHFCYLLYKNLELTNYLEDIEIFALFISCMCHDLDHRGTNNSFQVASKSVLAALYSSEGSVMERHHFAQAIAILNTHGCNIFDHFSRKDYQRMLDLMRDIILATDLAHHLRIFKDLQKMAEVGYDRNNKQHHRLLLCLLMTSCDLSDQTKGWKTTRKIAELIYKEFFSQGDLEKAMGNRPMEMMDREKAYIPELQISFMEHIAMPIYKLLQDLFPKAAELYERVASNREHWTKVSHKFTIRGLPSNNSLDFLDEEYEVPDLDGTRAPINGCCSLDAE
Experimental details: In vitro assay PDE2A (SPA, 3H-cGMP hydrolysis)
Type: biochemical
Condition description: human recombinant PDE2A; read-out: hPDE2A Emax
The entries below are paired with their reported Emax.
For clarity, give the value followed by its unit.

The examples below pair each entry with its known result.
Molecule	Emax
C[C@]1(c2cc(C(F)F)nc3ncnn23)CCCN(C(=O)c2ccc3c(ccn3CCF)c2)C1 (single isomer, unassigned)	91%
Cc1cnc(Cl)cc1C(=O)N1CC[C@@H](C)[C@H](c2cc(C(F)F)nc3ncnn23)C1	100%
COc1ccc2c(c1)cc(C(=O)N1CC[C@@H](C)[C@H](c3cc(C(F)F)nc4ncnn34)C1)n2C	101%
Cc1cc(C(=O)N2CC[C@@H](C)[C@H](c3cc(C(F)F)nc4ncnn34)C2)c(C)cn1	100%
COc1ncc(C(=O)N2CC[C@@H](C)[C@H](c3cc(C(F)F)nc4ncnn34)C2)cc1Cl	101%
Cc1ccc(C(=O)N2CCC[C@](C)(c3cc(C(F)F)nc4ncnn34)C2)c(C)n1 (single isomer, unassigned)	56%

Now let's try a different one.
Q: // query Emax value for entry `Cc1cc(C(=O)N2CC[C@@H](C)[C@H](c3cc(C(F)F)nc4ncnn34)C2)cc(C2CC2)n1`
A: 101%
